meta.source: ChEMBL document CHEMBL3431459

test_system: Carnitine O-palmitoyltransferase 1, muscle isoform (Homo sapiens, UniProt Q92523)
experiment: SUPPLEMENTARY: Inhibition of Carnitine palmitoyltransferase 1, muscle isoform
pIC50: −log10 of the molar value.
property: pIC50

The cases that follow already have their pIC50 on record.
COc1ccc(Cl)cc1S(=O)(=O)Nc1cccc(C#Cc2ccc(C(=O)O)cc2)c1	4.35
COc1ccc(Cl)cc1S(=O)(=O)n1ccc2ccc(C(=O)Nc3ccc(CC(=O)O)cc3)cc21	5.66

A. COc1ccc(Cl)cc1CN1C(=O)CSc2ccc(C(=O)Nc3nc(CC(=O)O)cs3)cc21
B. CS(=O)(=O)c1ccc(-c2csc([C@H]3CCCCN3C(=O)COc3ccccc3)n2)cc1
C. COc1ccc(Cl)cc1S(=O)(=O)N1CCOc2ccc(C(=O)Nc3ccc(C(=O)O)cc3)cc21
D. COc1ccc(Cl)cc1S(=O)(=O)N1CCSc2ccc(C(=O)Nc3nc(CC(=O)O)cs3)cc21
E. COc1ccc(Cl)cc1S(=O)(=O)Nc1cc(C(=O)Nc2ccccc2)ccc1/C=C/C(=O)O
Qu. rank_up(items): orders items by reported pIC50 in ascending numerical order. Answer format: the labels, in the requested order.
Ans. E, C, B, A, D
(E: 4.08, C: 4.83, B: 5.21, A: 5.76, D: 6.00)

* * *

test_system: Carnitine O-palmitoyltransferase 1, muscle isoform (Homo sapiens, UniProt Q92523)
Sequence (Q92523 whole entry): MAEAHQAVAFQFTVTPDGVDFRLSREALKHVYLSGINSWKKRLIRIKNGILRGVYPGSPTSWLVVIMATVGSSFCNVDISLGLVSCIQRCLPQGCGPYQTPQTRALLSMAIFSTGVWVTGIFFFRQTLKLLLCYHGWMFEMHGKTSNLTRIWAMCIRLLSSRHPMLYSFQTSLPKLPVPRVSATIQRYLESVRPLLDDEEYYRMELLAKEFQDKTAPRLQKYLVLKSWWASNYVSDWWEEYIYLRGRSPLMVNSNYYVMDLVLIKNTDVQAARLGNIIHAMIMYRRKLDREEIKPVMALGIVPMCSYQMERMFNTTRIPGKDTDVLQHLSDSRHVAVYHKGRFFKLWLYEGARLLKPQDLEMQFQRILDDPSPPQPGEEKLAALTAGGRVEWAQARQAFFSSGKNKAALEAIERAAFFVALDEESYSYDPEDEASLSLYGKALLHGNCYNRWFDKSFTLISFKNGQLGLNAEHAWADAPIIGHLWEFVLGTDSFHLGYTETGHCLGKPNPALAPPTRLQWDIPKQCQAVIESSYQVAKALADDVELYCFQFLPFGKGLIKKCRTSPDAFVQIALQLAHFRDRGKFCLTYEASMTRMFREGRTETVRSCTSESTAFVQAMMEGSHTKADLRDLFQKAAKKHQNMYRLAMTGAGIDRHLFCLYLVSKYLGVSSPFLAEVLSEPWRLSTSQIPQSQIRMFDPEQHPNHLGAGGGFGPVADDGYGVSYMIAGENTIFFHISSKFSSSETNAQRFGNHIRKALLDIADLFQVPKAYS
experiment: SUPPLEMENTARY: Inhibition of Carnitine palmitoyltransferase 1, muscle isoform
pIC50: −log10 of the molar value.
property: pIC50

O=C(COc1ccccc1)N1CCCC[C@@H]1c1nc(-c2cccnc2)cs1	4.15

P. O=C(COc1ccccc1)N1CCCC[C@@H]1c1noc(C2(C(F)(F)F)CC2)n1
Q. O=C(COc1ccncc1)N1CCCC[C@@H]1c1nnc(-c2cccc(C(F)(F)F)c2)[nH]1
Qu. Lab log: flag the item ( P or Q ) with the smaller pIC50 figure. Write the label of whichever entry you select.
Ans. P
(P: 4.53, Q: 4.99)

P. CC1(C)NC(=O)N(c2ccc(Cl)c(-c3nc([C@H]4CCCCN4C(=O)COc4ccccc4)no3)c2)C1=O
Q. O=C(Nc1ccc(-c2nnn[nH]2)cc1)c1cccc(NS(=O)(=O)c2cccc(Cl)c2)c1
Qu. Form field 'greater pIC50' accepts P or Q ; which applies? Write the label of whichever entry you select.
Ans. Q
(Q: 6.65, P: 4.64)

* * *

experiment: SUPPLEMENTARY: Lyophilisation Solubility Assay (LYSA)
Assay type: physicochemical
condition_set: read-out: Kinetic_solubility
property: solubility kinetic (µg/mL)

The cases that follow already have their solubility kinetic on record.
O=C(COc1ccccc1)N1CCCC[C@@H]1c1nc(-c2cccc(B(O)O)c2)no1	11
O=C([C@H]1CCCCN1C(=O)COc1ccccc1)N1Cc2cc(F)c(OC3CCOCC3)cc2C1	37
COc1ccc(Cl)cc1S(=O)(=O)N1CCNc2ccc(C(=O)Nc3ccc(C(=O)O)c(F)c3)cc21	58

A. O=C1CN(c2cccc(-c3noc([C@H]4CCCCN4C(=O)COc4ccccc4)n3)c2)C(=O)N1
B. COc1ccc(Cl)cc1S(=O)(=O)N1CCCCc2ccc(C(=O)Nc3ccc(C(=O)O)c(Cl)c3)cc21
Qu. Lab log: flag the item ( A or B ) with the smaller solubility kinetic figure. Write the label of whichever entry you select.
Ans. A

* * *

test_system: Carnitine O-palmitoyltransferase 1, muscle isoform (Homo sapiens, UniProt Q92523)
Sequence (Q92523 whole entry): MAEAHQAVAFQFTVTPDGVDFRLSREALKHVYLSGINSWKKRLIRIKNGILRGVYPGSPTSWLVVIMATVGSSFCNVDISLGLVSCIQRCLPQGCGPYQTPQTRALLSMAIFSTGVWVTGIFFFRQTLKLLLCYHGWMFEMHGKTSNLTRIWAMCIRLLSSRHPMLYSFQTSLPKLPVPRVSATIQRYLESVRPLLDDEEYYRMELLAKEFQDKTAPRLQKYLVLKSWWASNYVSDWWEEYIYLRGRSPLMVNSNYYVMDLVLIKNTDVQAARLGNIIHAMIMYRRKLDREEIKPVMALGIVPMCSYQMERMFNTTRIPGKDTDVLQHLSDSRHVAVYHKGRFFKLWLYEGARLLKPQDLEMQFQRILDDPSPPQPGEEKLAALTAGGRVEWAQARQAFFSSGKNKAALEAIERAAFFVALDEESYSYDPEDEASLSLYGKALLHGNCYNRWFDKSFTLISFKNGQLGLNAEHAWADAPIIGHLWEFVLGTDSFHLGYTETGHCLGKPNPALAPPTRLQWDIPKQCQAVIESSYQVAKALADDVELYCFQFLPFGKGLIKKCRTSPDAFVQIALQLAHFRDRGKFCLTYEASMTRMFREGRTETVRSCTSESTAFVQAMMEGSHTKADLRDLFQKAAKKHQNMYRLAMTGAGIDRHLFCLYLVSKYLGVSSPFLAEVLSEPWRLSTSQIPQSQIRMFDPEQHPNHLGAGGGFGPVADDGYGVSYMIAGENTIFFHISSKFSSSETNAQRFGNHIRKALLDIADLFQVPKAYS
experiment: SUPPLEMENTARY: Inhibition of Carnitine palmitoyltransferase 1, muscle isoform
property: IC50 (µM)

COc1ccc(Cl)cc1CN1C(=O)OC(C)(C)c2ccc(C(=O)Nc3nc(CC(=O)O)cs3)cc21	1.01
COc1ccc(Cl)cc1Cc1cn(C)c2ccc(C(=O)Nc3nc(CC(=O)O)cs3)cc12	2.41
Cc1cc(C)cc(S(=O)(=O)N2CCc3ccc(C(=O)Nc4nc(CC(=O)O)cs4)cc32)c1	0.531
COc1ccc(Cl)cc1CN1C(=O)CS(=O)(=O)c2ccc(C(=O)Nc3nc(CC(=O)O)cs3)cc21	9.62

1. O=C1Nc2ccc(-c3n[nH]c([C@H]4CCCCN4C(=O)COc4ccccc4)n3)cc2CO1
2. COc1ccc(Cl)cc1S(=O)(=O)N1CCCCc2ccc(C(=O)Nc3ccc(C(=O)O)c(Cl)c3)cc21
Qu. Form field 'greater IC50' accepts 1 or 2 ; which applies? Write the label of whichever entry you select.
Ans. 1
(1: 70.7 µM, 2: 3.01 µM)

* * *

test_system: Carnitine O-palmitoyltransferase 1, liver isoform (Rattus norvegicus, UniProt P32198)
Sequence (P32198 whole entry, canonical isoform): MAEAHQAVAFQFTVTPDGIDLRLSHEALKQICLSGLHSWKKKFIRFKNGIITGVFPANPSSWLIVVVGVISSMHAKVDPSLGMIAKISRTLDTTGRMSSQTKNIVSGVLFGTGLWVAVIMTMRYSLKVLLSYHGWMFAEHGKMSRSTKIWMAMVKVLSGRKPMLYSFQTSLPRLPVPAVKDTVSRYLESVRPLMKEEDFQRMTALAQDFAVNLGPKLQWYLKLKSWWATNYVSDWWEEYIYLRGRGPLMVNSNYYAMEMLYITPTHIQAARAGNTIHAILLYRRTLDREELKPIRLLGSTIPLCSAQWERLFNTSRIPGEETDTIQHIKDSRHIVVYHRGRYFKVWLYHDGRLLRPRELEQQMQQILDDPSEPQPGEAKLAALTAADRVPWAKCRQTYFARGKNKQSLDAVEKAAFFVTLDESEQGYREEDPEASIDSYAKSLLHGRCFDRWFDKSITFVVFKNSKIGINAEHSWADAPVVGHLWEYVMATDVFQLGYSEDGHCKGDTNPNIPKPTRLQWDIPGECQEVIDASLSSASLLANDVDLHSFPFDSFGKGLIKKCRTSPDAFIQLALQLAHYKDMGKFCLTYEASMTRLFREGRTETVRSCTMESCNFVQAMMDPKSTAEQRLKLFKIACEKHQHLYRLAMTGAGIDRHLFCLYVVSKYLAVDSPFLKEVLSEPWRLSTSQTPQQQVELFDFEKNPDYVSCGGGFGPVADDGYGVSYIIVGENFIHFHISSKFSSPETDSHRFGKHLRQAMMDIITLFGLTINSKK
experiment: SUPPLEMENTARY: Inhibition of Carnitine palmitoyltransferase 1, liver isoform
pIC50: −log10 of the molar value.
property: pIC50

The cases that follow already have their pIC50 on record.
COc1ccc(Cl)cc1S(=O)(=O)N1COc2c(F)cc(C(=O)Nc3ccc(C(=O)O)c(Cl)c3)cc21	6.91
O=C(O)c1ccc(NC(=O)c2ccc3c(c2)N(S(=O)(=O)c2cccc(Cl)c2)CCS3(=O)=O)cc1	7.40
CC(=O)Nc1cc(-c2n[nH]c([C@H]3CCCCN3C(=O)COc3ccccc3)n2)ccc1F	6.43
O=C(COc1ccccc1)N1CCCC[C@@H]1c1noc(-c2cccc(-n3cc[nH]c3=O)c2)n1	6.34
COc1ccc(Cl)cc1S(=O)(=O)N1CCSc2ccc(C(=O)Nc3ccc(CC(=O)O)cc3)cc21	6.81
O=C(COc1ccccc1)N1CCCC[C@@H]1c1noc(-c2ccc(-n3cnnn3)cc2)n1	7.01
Cc1cc(C)cc(S(=O)(=O)N2CCc3ccc(C(=O)Nc4nc(CC(=O)O)cs4)cc32)c1	7.49
COc1ccc(-n2nnc([C@H]3CCCCN3C(=O)COc3ccccc3)n2)cc1	6.99
Nc1ccc(-c2n[nH]c([C@H]3CCCCN3C(=O)COc3ccccc3)n2)cn1	6.12
CC(=O)Nc1cc(F)cc(-c2n[nH]c([C@H]3CCCCN3C(=O)COc3ccccc3)n2)c1	7.18

A. COc1ccc(Cl)cc1S(=O)(=O)N(c1cc(C(=O)Nc2ncc(CC(=O)O)s2)cc2c1OCO2)C(C)C
B. O=C([C@H]1CCCCN1C(=O)COc1ccccc1)N1Cc2cc(F)c(N3CCOCC3)cc2C1
C. COc1ccc(Cl)cc1S(=O)(=O)N1C[C@H](C(=O)O)Oc2ccc(C(=O)Nc3ccccc3)cc21
Qu. Sort these molecules on pIC50 so the largest reading comes first. Answer format: the labels, in the requested order.
Ans. C, B, A
(C: 7.82, B: 6.97, A: 6.43)
